Test system: NCI-H322M lung
Experiment: NCI tumour cell line growth inhibition, 384-well format
Below: a set of entries, each annotated with reported GI50.
measuredEndpoint: GI50

{"molecule": "CCOC(=O)c1cc(/C=C/c2ccc(Cl)cc2Cl)on1", "experimentalSystem": "NCI-H322M lung", "result": "4.04 µM"}
{"molecule": "CC[C@H](NC(=O)[C@H](C)NC)C(=O)N1C[C@@H](O)C[C@H]1Cc1c(-c2[nH]c3cc(F)ccc3c2C[C@@H]2C[C@H](O)CN2C(=O)[C@H](CC)NC(=O)[C@H](C)NC)[nH]c2cc(F)ccc12", "experimentalSystem": "NCI-H322M lung", "result": "> 100 µM"}
{"molecule": "O=c1ccn(C2OC(CO)C(O)C2F)c(=O)[nH]1 (stereo not given)", "experimentalSystem": "NCI-H322M lung", "result": "> 100 µM"}
{"molecule": "CCN(CC)CCCC(C)Nc1c2ccc(Cl)cc2nc2ccc(OC)cc12 (stereo not given)", "experimentalSystem": "NCI-H322M lung", "result": "1.29 µM"}
{"molecule": "CN[C@@H](C)C(=O)N[C@H](C(=O)N1CCC[C@H]1C(=O)N[C@H]1c2ccccc2C[C@H]1OCC#CC#CCO[C@@H]1Cc2ccccc2[C@@H]1NC(=O)[C@@H]1CCCN1C(=O)[C@@H](NC(=O)[C@H](C)NC)C1CCCCC1)C1CCCCC1", "experimentalSystem": "NCI-H322M lung", "result": "2.25 µM"}

----------
System: NCI/ADR-RES ovarian
Assay: NCI tumour cell line growth inhibition, 384-well format

{"compound": "CCN(CC)CCCC(C)Nc1c2ccc(Cl)cc2nc2ccc(OC)cc12 (centres undefined)", "GI50": "1550 nM"}
{"compound": "CN(C)CCN(C)CC(C)(C)C(=O)/C=C/c1ccc(Cl)c(Cl)c1", "GI50": "1570 nM"}
{"compound": "O=c1ccn(C2OC(CO)C(O)C2F)c(=O)[nH]1 (centres undefined)", "GI50": "> 100000 nM"}
{"compound": "CN[C@@H](C)C(=O)N[C@H](C(=O)N1CCC[C@H]1C(=O)N[C@H]1c2ccccc2C[C@H]1OCC#CC#CCO[C@@H]1Cc2ccccc2[C@@H]1NC(=O)[C@@H]1CCCN1C(=O)[C@@H](NC(=O)[C@H](C)NC)C1CCCCC1)C1CCCCC1", "GI50": "4650 nM"}

----------
System: SK-MEL-5 melanoma
Assay: NCI tumour cell line growth inhibition, 384-well format
measuredEndpoint: TGI (nM)

{"compound": "CN[C@@H](C)C(=O)N[C@H](C(=O)N1CCC[C@H]1C(=O)N[C@H]1c2ccccc2C[C@H]1OCC#CC#CCO[C@@H]1Cc2ccccc2[C@@H]1NC(=O)[C@@H]1CCCN1C(=O)[C@@H](NC(=O)[C@H](C)NC)C1CCCCC1)C1CCCCC1", "unitInfo": "nM", "quantitativeReadout": 44.6}
{"compound": "CO[C@@H]1/C=C\\C=C(/C)C(=O)NC2=CC(=O)C(NCCN(C)C)=C(C[C@@H](C)C[C@@H](OC)[C@@H](O)[C@H](C)/C=C(\\C)[C@H]1OC(N)=O)C2=O", "unitInfo": "nM", "quantitativeReadout": 366}
{"compound": "CCN(CC)CCCC(C)Nc1c2ccc(Cl)cc2nc2ccc(OC)cc12 (centres undefined)", "unitInfo": "nM", "quantitativeReadout": 3380}
{"compound": "CCOC(=O)c1cc(/C=C/c2ccc(Cl)cc2Cl)on1", "unitInfo": "nM", "quantitativeReadout": 3530}

----------
System: SNB-19 CNS
Test: NCI tumour cell line growth inhibition, 384-well format; in the data active = GI50 below about 0.43 µM; inactive = the rest
Labels: yes = active, no = inactive

{"molecule": "CN[C@@H](C)C(=O)N[C@H](C(=O)N1CCC[C@H]1C(=O)N[C@H]1c2ccccc2C[C@H]1OCC#CC#CCO[C@@H]1Cc2ccccc2[C@@H]1NC(=O)[C@@H]1CCCN1C(=O)[C@@H](NC(=O)[C@H](C)NC)C1CCCCC1)C1CCCCC1", "cat": "no"}
{"molecule": "CC[C@H](NC(=O)[C@H](C)NC)C(=O)N1C[C@@H](O)C[C@H]1Cc1c(-c2[nH]c3cc(F)ccc3c2C[C@@H]2C[C@H](O)CN2C(=O)[C@H](CC)NC(=O)[C@H](C)NC)[nH]c2cc(F)ccc12", "cat": "no"}
{"molecule": "CN(C)CCN(C)CC(C)(C)C(=O)/C=C/c1ccc(Cl)c(Cl)c1", "cat": "no"}
{"molecule": "CCN(CC)CCCC(C)Nc1c2ccc(Cl)cc2nc2ccc(OC)cc12 (stereo not given)", "cat": "no"}
{"molecule": "CO[C@@H]1/C=C\\C=C(/C)C(=O)NC2=CC(=O)C(NCCN(C)C)=C(C[C@@H](C)C[C@@H](OC)[C@@H](O)[C@H](C)/C=C(\\C)[C@H]1OC(N)=O)C2=O", "cat": "yes"}

----------
Tested on: HL-60(TB) leukemia
Assay: NCI tumour cell line growth inhibition, 384-well format; in the data active means GI50 below about 0.43 µM; inactive means the rest
Labels: 1 for active, 0 for inactive

{"compound": "CN[C@@H](C)C(=O)N[C@H](C(=O)N1CCC[C@H]1C(=O)N[C@H]1c2ccccc2C[C@H]1OCC#CC#CCO[C@@H]1Cc2ccccc2[C@@H]1NC(=O)[C@@H]1CCCN1C(=O)[C@@H](NC(=O)[C@H](C)NC)C1CCCCC1)C1CCCCC1", "cat": 1}
{"compound": "CCN(CC)CCCC(C)Nc1c2ccc(Cl)cc2nc2ccc(OC)cc12 (stereo unspecified)", "cat": 0}
{"compound": "CC[C@H](NC(=O)[C@H](C)NC)C(=O)N1C[C@@H](O)C[C@H]1Cc1c(-c2[nH]c3cc(F)ccc3c2C[C@@H]2C[C@H](O)CN2C(=O)[C@H](CC)NC(=O)[C@H](C)NC)[nH]c2cc(F)ccc12", "cat": 1}
{"compound": "CN(C)CCN(C)CC(C)(C)C(=O)/C=C/c1ccc(Cl)c(Cl)c1", "cat": 1}
{"compound": "O=c1ccn(C2OC(CO)C(O)C2F)c(=O)[nH]1 (stereo unspecified)", "cat": 0}
{"compound": "CCOC(=O)c1cc(/C=C/c2ccc(Cl)cc2Cl)on1", "cat": 0}

----------
Below: a set of entries, each annotated with reported TGI.
Test system: OVCAR-8 ovarian
Assay: NCI tumour cell line growth inhibition, 384-well format

{"molecule": "CN[C@@H](C)C(=O)N[C@H](C(=O)N1CCC[C@H]1C(=O)N[C@H]1c2ccccc2C[C@H]1OCC#CC#CCO[C@@H]1Cc2ccccc2[C@@H]1NC(=O)[C@@H]1CCCN1C(=O)[C@@H](NC(=O)[C@H](C)NC)C1CCCCC1)C1CCCCC1", "TGI": "2220 nM"}
{"molecule": "CN(C)CCN(C)CC(C)(C)C(=O)/C=C/c1ccc(Cl)c(Cl)c1", "TGI": "2590 nM"}
{"molecule": "O=c1ccn(C2OC(CO)C(O)C2F)c(=O)[nH]1 (centres undefined)", "TGI": "> 100000 nM"}
{"molecule": "CCOC(=O)c1cc(/C=C/c2ccc(Cl)cc2Cl)on1", "TGI": "11000 nM"}

----------
Below: a set of entries, each annotated with reported TGI.
Test system: NCI-H23 lung
Experiment: NCI tumour cell line growth inhibition, 384-well format
measuredEndpoint: TGI (µM)

{"compound": "CCOC(=O)c1cc(/C=C/c2ccc(Cl)cc2Cl)on1", "modifier": "=", "quantitativeReadout": 5.29}
{"compound": "CC[C@H](NC(=O)[C@H](C)NC)C(=O)N1C[C@@H](O)C[C@H]1Cc1c(-c2[nH]c3cc(F)ccc3c2C[C@@H]2C[C@H](O)CN2C(=O)[C@H](CC)NC(=O)[C@H](C)NC)[nH]c2cc(F)ccc12", "modifier": "=", "quantitativeReadout": 13.1}
{"compound": "CN[C@@H](C)C(=O)N[C@H](C(=O)N1CCC[C@H]1C(=O)N[C@H]1c2ccccc2C[C@H]1OCC#CC#CCO[C@@H]1Cc2ccccc2[C@@H]1NC(=O)[C@@H]1CCCN1C(=O)[C@@H](NC(=O)[C@H](C)NC)C1CCCCC1)C1CCCCC1", "modifier": "=", "quantitativeReadout": 0.0576}
{"compound": "O=c1ccn(C2OC(CO)C(O)C2F)c(=O)[nH]1 (centres undefined)", "modifier": ">", "quantitativeReadout": 100}

----------
System: MCF7 breast
Assay: NCI tumour cell line growth inhibition, 384-well format
Below: a set of entries, each annotated with reported TGI.

{"moleculeSmiles": "CN[C@@H](C)C(=O)N[C@H](C(=O)N1CCC[C@H]1C(=O)N[C@H]1c2ccccc2C[C@H]1OCC#CC#CCO[C@@H]1Cc2ccccc2[C@@H]1NC(=O)[C@@H]1CCCN1C(=O)[C@@H](NC(=O)[C@H](C)NC)C1CCCCC1)C1CCCCC1", "TGI [nM]": 2620}
{"moleculeSmiles": "CC[C@H](NC(=O)[C@H](C)NC)C(=O)N1C[C@@H](O)C[C@H]1Cc1c(-c2[nH]c3cc(F)ccc3c2C[C@@H]2C[C@H](O)CN2C(=O)[C@H](CC)NC(=O)[C@H](C)NC)[nH]c2cc(F)ccc12", "TGI [nM]": 31400}
{"moleculeSmiles": "CCOC(=O)c1cc(/C=C/c2ccc(Cl)cc2Cl)on1", "TGI [nM]": 2810}
{"moleculeSmiles": "CO[C@@H]1/C=C\\C=C(/C)C(=O)NC2=CC(=O)C(NCCN(C)C)=C(C[C@@H](C)C[C@@H](OC)[C@@H](O)[C@H](C)/C=C(\\C)[C@H]1OC(N)=O)C2=O", "TGI [nM]": 147}

# credit: PubChem BioAssay (NCI)
